Form: system (Receptor tyrosine-protein kinase erbB-4 (Homo sapiens, UniProt Q15303)), quantity (pIC50), values below.
pIC50: −log10 of the molar value.

Molecular String: Cc1ccc(C(=O)NC2CC2)cc1-c1ccc2ccncc2c1
Observed Result: < 4.60
--
Molecular String: Cc1ccc(NC(=O)c2ccc(CN3CCN(C)CC3)cc2)cc1-c1ccc2ccncc2c1
Observed Result: 6.52
--
Molecular String: Cc1ccc(NC(=O)c2ccc(CN3CCN(C)CC3)cc2)cc1-c1ccc2c(N)noc2c1
Observed Result: < 4.60
--
Molecular String: Cc1ccc(C(=O)NC2CC2)cc1-c1ccc2c(C3CCNCC3)noc2c1
Observed Result: < 4.60
--
Molecular String: Cc1nnc(-c2ccc(-c3cc(NC(=O)c4ccc(CN5CCN(C)CC5)cc4)ccc3C)c(C)c2)o1
Observed Result: < 4.60

Now consider the entry below.
Give pIC50 for Cc1ccc(NC(=O)c2ccc(CN3CCN(C)CC3)cc2)cc1-c1ccc(-c2csc(N)n2)cc1 tested on Receptor tyrosine-protein kinase erbB-4 (Homo sapiens, UniProt Q15303). < 4.60

src = ChEMBL document CHEMBL1141712
